- System: THP-1
- test: cell viability (% survival relative to DMSO control, bortezomib = 0%); higher = less cytotoxic
- study conditions: 10000 nM; 72 h
quantity measured: cell viability (%)

> print(dat)
                               smiles.input  experimental.result
1     CN(CCOc1ccc(Cc2sc(O)nc2O)cc1)c1ccccn1                 93.5
2  CCCc1nc(C)c2c(=O)nc(-c3cc(S(=O)(=O)N4CCN(CC)CC4)ccc3OCC)[nH]n12                 96.5
3  c1cc(-c2cnn3cc(-c4ccc(OCCN5CCCCC5)cc4)cnc23)ccn1                 55.6
4  CCn1c(=Cc2cccc[n+]2CC)sc(=C2Sc3ccccc3N2C)c1=O                 86.1
5       Cc1cccc(Nc2cc(Cl)nc(SCC(=O)O)n2)c1C                  102

---

Catalogue of cell viability readings, one per entry.
- Test system: myeloid leukemia patient primary cells Pat.7
- test: cell viability (% survival relative to DMSO control); higher = less cytotoxic
- study conditions: 10 nM; 72 h
quantity measured: cell viability (%)

> print(dat)
                                   compound  experimental.result
1  CC(C)(C)c1ccc(S(=O)(=O)NCc2ccc(C(=O)Nc3cccnc3)cc2)cc1                 62.7
2  Cn1cc(-c2ccncc2)c(-c2ccc(OCc3ccc4ccccc4n3)cc2)n1                 73.5
3     O=c1cc(N2CCOCC2)oc2c(-c3ccccc3)cccc12                 64.8
4  CN(Cc1cnc2nc(N)nc(N)c2n1)c1ccc(C(=O)N[C@@H](CCC(=O)O)C(=O)O)cc1 [Methotrexate]                 89.1

---

- Test system: HL-60
- test: cell viability (% survival relative to DMSO control, bortezomib = 0%); higher = less cytotoxic
- study conditions: 100 nM; 72 h
Structures can show the parent of a compound that is named as a salt.
quantity measured: cell viability (%)

compound	quantity measured	unit abbreviation	experimental result
C=CC(=O)c1ccc(O)cc1 [4-Acryloylphenol]	cell viability	%	97.5
O=C(/C=C/c1ccc(O)c(O)c1)OCCc1ccccc1 [Caffeic acid phenethyl ester]	cell viability	%	92.2
CCc1c(C(=O)C(N)=O)c2c(OCC(=O)O)cccc2n1Cc1ccccc1 [Varespladib]	cell viability	%	92.8
Cn1cc(-c2ccncc2)c(-c2ccc(OCc3ccc4ccccc4n3)cc2)n1	cell viability	%	103
Cc1c(Cl)cccc1S(=O)(=O)Nc1nc(CC(=O)N2CCN(C)CC2)cs1 [BVT-2733]	cell viability	%	78.9
CCOC(=O)c1sc(NC(=O)c2ccco2)c(SC#N)c1C [CBR-5884]	cell viability	%	89.5
Cc1nc(-c2ccccc2)sc1C(=O)Nc1ccc(S(N)(=O)=O)cc1	cell viability	%	117
CC(C)CC(=O)N[C@H](C(=O)N[C@H](C(=O)N[C@@H](CC(C)C)[C@@H](O)CC(=O)N[C@@H](C)C(=O)N[C@@H](CC(C)C)[C@@H](O)CC(=O)O)C(C)C)C(C)C [Pepstatin A]	cell viability	%	111
CCCCCCCC/C=C\CCCCCCCC(=O)Nc1ccccc1 [Octadec-9-Enoic Acid Phenylamide]	cell viability	%	113
N#C/C(=C\c1ccc(O)cc1)C(=O)O [alpha-cyano-4-hydroxycinnamic acid]	cell viability	%	113
CN1CCN(CCCN2c3ccccc3Sc3ccc(C(F)(F)F)cc32)CC1 [Trifluoperazine]	cell viability	%	88.6
c1cc(-c2cnn3cc(-c4ccc(OCCN5CCCCC5)cc4)cnc23)ccn1 [Dorsomorphin]	cell viability	%	94.9
CCN(CCO)CCCC(C)Nc1ccnc2cc(Cl)ccc12 (centres undefined) [Hydroxychloroquine sulfate]	cell viability	%	96.5
CC[C@H](C)[C@H](N)C(=O)N1CCSC1 [P32/98]	cell viability	%	108
